# study system: Histone deacetylase 1 (Homo sapiens)
# Sequence (Q13547 whole entry): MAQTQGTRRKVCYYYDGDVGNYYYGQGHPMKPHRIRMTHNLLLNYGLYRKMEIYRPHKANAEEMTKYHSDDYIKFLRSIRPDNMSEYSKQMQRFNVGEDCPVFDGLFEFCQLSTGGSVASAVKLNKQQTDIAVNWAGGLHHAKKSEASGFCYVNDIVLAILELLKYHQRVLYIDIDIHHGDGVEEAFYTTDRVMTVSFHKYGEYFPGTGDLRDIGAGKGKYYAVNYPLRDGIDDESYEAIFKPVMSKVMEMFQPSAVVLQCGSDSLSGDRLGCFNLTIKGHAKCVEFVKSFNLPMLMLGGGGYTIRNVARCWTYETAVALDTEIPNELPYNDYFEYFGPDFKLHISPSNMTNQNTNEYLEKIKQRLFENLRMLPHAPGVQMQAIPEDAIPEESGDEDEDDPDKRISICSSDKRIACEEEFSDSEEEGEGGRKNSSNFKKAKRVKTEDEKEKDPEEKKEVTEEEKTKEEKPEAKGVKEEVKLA
measurement kind: IC50 (nM)
Respond with the bare value in nM.

Query: State its IC50 on Histone deacetylase 1 (Homo sapiens): O=C(CCN1C(=O)C2(OCCCO2)c2cc(Br)ccc21)Nc1ccc(C(=O)NO)cc1
Reply: 201

###

# study system: Histone deacetylase (HDAC1 and HDAC2) (Homo sapiens, UniProt Q13547+Q92769)
# run description: Inhibition of HDAC1/2 in human HeLa cell nuclear extract using Boc-Lys (acetyl)-AMC as substrate preincubated for 30 mins before substrate addition measured after 20 mins by UV-vis spectrophotometer analysis
# Assay type: cell-based
Consider the following molecules and their measured log10 IC50 readings.
// stored as log10 of IC50 expressed in nM

Here's what some known entries look like.
Query: Would you mind telling me what log10 IC50 value was observed for O=C(CN1C(=O)C2(OCCO2)c2cc(F)ccc21)Nc1ccc(C(=O)NO)cc1 ?
Reply: 2.28

Query: Bench note: what log10 IC50 did Nc1ccccc1NC(=O)c1ccc(NC(=O)CN2C(=O)C3(OCCCO3)c3cc(Br)ccc32)cc1 show?
Reply: 2.49

Query: May I ask what log10 IC50 has been recorded for O=C(CN1C(=O)C2(OCCCCO2)c2cc(Cl)ccc21)Nc1ccc(C(=O)NO)cc1 ?
Reply: 1.57

Query: Entry under review: O=C(CCCN1C(=O)C2(OCCCO2)c2cc(Br)ccc21)Nc1ccc(C(=O)NO)cc1 . Reported log10 IC50?
Reply: 1.29

Further cases:
Query: Request the reported log10 IC50 associated with Cc1ccc2c(c1)C1(OCCO1)C(=O)N2CC(=O)Nc1ccc(C(=O)NO)cc1
Reply: 2.45

Query: Field request: log10 IC50 | item: O=C(CCN1C(=O)C2(OCCCO2)c2cc(Br)ccc21)Nc1ccc(C(=O)NO)cc1
Reply: 1.01

Query: Would you mind telling me what log10 IC50 value was observed for O=C(CCCCCNC(=O)CN1C(=O)C2(OCCO2)c2cc(Br)ccc21)NO ?
Reply: 2.83

Query: Which log10 IC50 is listed for O=C(CN1C(=O)C2(OCCO2)c2cc(Br)ccc21)Nc1ccc(C(=O)NO)cc1 ?
Reply: 2.08

Query: I'd like to know its log10 IC50. The molecule in question is O=C(CCCNC(=O)CN1C(=O)C2(OCCO2)c2cc(Br)ccc21)NO
Reply: 2.96

###

# IC50 per record follows
# study system: Histone deacetylase (HDAC1 and HDAC2) (Homo sapiens, UniProt Q13547+Q92769)
# run description: Inhibition of HDAC1/2 in human HeLa cell nuclear extract using Boc-Lys (acetyl)-AMC as substrate preincubated for 30 mins before substrate addition measured after 20 mins by UV-vis spectrophotometer analysis
# Format: cell-based
The reply should be a number in nM, with the unit left off.

Query: Dear colleague, I am looking for the recorded IC50 of the following compound: O=C(/C=C/c1ccc(NC(=O)CN2C(=O)C3(OCCO3)c3cc(Br)ccc32)cc1)NO
Reply: 220

Query: Find the recorded IC50 belonging to O=C(CN1C(=O)C2(OCCCCO2)c2cc(Br)ccc21)Nc1ccc(C(=O)NO)cc1 and report it.
Reply: 21.6

Query: Quick one: IC50 of O=C(CN1C(=O)C2(OCCO2)c2cc(Cl)ccc21)Nc1ccc(C(=O)NO)cc1 ?
Reply: 370

Query: Return reported IC50; argument: O=C(CN1C(=O)C2(OCCO2)c2ccccc21)Nc1ccc(C(=O)NO)cc1
Reply: 310

Query: Reported IC50, compound O=C(CN1C(=O)C2(OCCCO2)c2cc(Cl)ccc21)Nc1ccc(C(=O)NO)cc1 : ____
Reply: 34.4

Query: Looking for the measured IC50 of O=C(CN1C(=O)C2(OCCCO2)c2cc(Br)ccc21)Nc1ccc(C(=O)NO)cc1 , can you help?
Reply: 13
